# Tested on: M19-MEL
# experimental protocol: NCI tumour cell line growth inhibition, 48 h
Active and inactive are the calls of the source. Cut-off read from the data, not from the text of the source: active = GI50 up to about 1.1 µM and inactive = higher.
# output must be one of active, inactive

Here are 6 molecules together with their reported answers.
molecule: O=C(CC1C(=O)Nc2ccccc2[S+]1[O-])Nc1cc(Cl)ccc1Cl (stereo not given)
assigned class: inactive
//
molecule: Cc1nc(-n2nc(-c3ccccc3)cc2-c2ccccc2)sc1C(=O)/C=C/c1ccccc1
assigned class: inactive
//
molecule: Cc1cc2cccc(Cl)c2nc1C(=O)c1ccccc1
assigned class: inactive
//
molecule: Nc1ccc2nc(Nc3ccc(Cl)c(Cl)c3)cnc2c1
assigned class: inactive
//
molecule: CCn1c2c(c3ccccc31)C(c1ccccc1)CC1C(=O)N(c3ccccc3)C(=O)C21 (stereo not given)
assigned class: inactive
//
molecule: COc1cc(/C=C(\OC(C)=O)c2ccc3c(c2)OCO3)cc(OC)c1OC
assigned class: inactive

[Q] How did this test come out for O=C(c1cc2ccccc2o1)N(Cc1ccccc1)c1ccccc1 ?
[A] inactive

[Q] Field entry: C[N+](C)(C)CC1CCCC(C[N+](C)(C)C)C1O (stereo not given)
[A] inactive

[Q] Field entry: C[C@@]1(CBr)C[C@@](C)(/C=C/Cl)[C@@H](Cl)C[C@H]1Cl
[A] inactive

[Q] Field entry: O=C(c1ccncc1)n1nc(-c2ccccc2)c(/N=N/c2ccc([N+](=O)[O-])cc2)c1-c1ccccc1
[A] inactive

[Q] Field entry: CCCC(=O)c1ccc2c(ccc(=O)n2C)c1
[A] inactive

[Q] Field entry: O=C(N/C(=C\c1c(O)ccc2ccccc12)c1nc2ccccc2[nH]1)c1ccccc1
[A] inactive

[Q] Field entry: CCOC1CC2OC(=O)C1C=C2C(=O)OC (stereo not given)
[A] inactive

[Q] Field entry: CCCCCCCCCCCCCCCCCCCCCCC(=O)N[C@H]1CCc2cc(OC)c(OC)c(OC)c2-c2ccc(SC)c(=O)cc21
[A] inactive

[Q] Field entry: C/C(CC(=O)Nc1cccc(Cl)c1C)=N\N=C(N)N
[A] inactive

[Q] Field entry: CCOC(=O)C(CC(C)C)NC(=O)C(N)Cc1ccc(N(CCCl)CCCl)cc1 (stereo not given)
[A] inactive

[Q] Field entry: CCN(CC)CCNC(=O)c1cccc2cc3ccccc3nc12
[A] inactive

[Q] Field entry: CCN(CC)C(=O)C(C)n1cc(C)c(=O)[nH]c1=O (stereo not given)
[A] inactive

[Q] Field entry: CC1(C)Cc2cc(C(=O)O)c3c(c2C1=O)COCC3
[A] inactive

[Q] Field entry: N/C(=N\O)N/N=C\c1ccccc1O
[A] inactive

[Q] Field entry: Cc1n(CC(C)C)c2c([n+]1C)C(=O)c1ccccc1C2=O
[A] active

[Q] Field entry: CC1OC(n2ccc(=O)[nH]c2=O)C=C(OC(=O)c2ccccc2)C1=O (stereo not given)
[A] inactive

---

# Tested on: OVCAR-8
# experimental protocol: NCI tumour cell line growth inhibition, 48 h
Activity calls are given as the source filed them. No stated cut-off is given here; in the data, active = GI50 up to about 1.1 µM and inactive = higher.
# output must be one of active, inactive

molecule: CCN1C(=O)/C(=C\Nc2ccccc2)S/C1=N/Nc1ncc(CC(=O)Nc2ccccc2C)s1
assigned class: inactive

Now examine the next entry.
[Q] How did this test come out for S=C1SCN(C2CCCCCCCCCCC2)CN1C1CCCCCCCCCCC1 ?
[A] inactive

---

# System: HOP-62
# experimental protocol: NCI tumour cell line growth inhibition, 48 h
Calls of active or inactive are those of the source. Cut-off read from the data, not from the text of the source: active = GI50 up to about 1.1 µM and inactive = higher.
Parameter GI50: see the listing below.

Reference set, count: 5
compound: CSCSCC(CO)NC(=O)/C=C\c1c(C)[nH]c(=O)[nH]c1=O (stereo unspecified)
metric name: GI50
result: 38.8 µM (inactive)
//
compound: CC(=O)C1C(=O)C(C(C)=O)C2C3C=CC(C3)C12 (stereo unspecified)
metric name: GI50
result: > 100 µM (inactive)
//
compound: COc1ccccc1C#C/C=C\C#Cc1ccccc1C#N
metric name: GI50
result: 14.5 µM (inactive)
//
compound: COc1cc2c(cc1OC)C1(c3ccc(Cl)cc3)ON=C(c3ccccc3)N1CS2 (stereo unspecified)
metric name: GI50
result: > 100 µM (inactive)
//
compound: COc1c(O)c(OC)c2oc(-c3ccc(O)cc3)c(OC)c(=O)c2c1O
metric name: GI50
result: 24.4 µM (inactive)

[Q] Which value of GI50 has been reported for COc1ccc(-c2c(C3=NCCCN3)nnn2-c2ccccc2)cc1 in the records?
[A] > 100 µM (inactive)

---

# System: HCT-116
# experimental protocol: NCI tumour cell line growth inhibition, 48 h
Active and inactive are the calls of the source. Cut-off read from the data, not from the text of the source: active = GI50 up to about 1.1 µM and inactive = higher.
metric name: GI50

Reference set, count: 8
compound: CCOP(=O)(OCC)Oc1c(OC)c2[nH]c(C(=O)OC)cc2c2c(C(=O)O)c[nH]c12
GI50: > 100 µM (inactive)
//
compound: COc1cc2c(cc1OC)-c1cc3cc(OC)c(OC)cc3c(C)[n+]1CC2.O=C([O-])CS(=O)(=O)O
GI50: 73.5 µM (inactive)
//
compound: Nn1c(-c2ccccc2)nn(C(=O)c2ccccc2)c1=O
GI50: > 100 µM (inactive)
//
compound: COc1ccc(/C=C2\CC3C4CC=C5C[C@@H](N6CCCC6)CC[C@]5(C)C4CC[C@]3(C)[C@H]2O)cc1OC (some centres undefined)
GI50: 8.24 µM (inactive)
//
compound: CC(=N/NC(=S)N1CCCCCC1)/C(C)=N\NC(=S)N1CCCCCC1
GI50: 5.08 µM (inactive)
//
compound: COc1cc2ccc1OCc1cccc(n1)COc1ccc(cc1OC)/C=N\c1ccc(cc1)-c1ccc(cc1)/N=C\2
GI50: > 100 µM (inactive)
//
compound: CCn1c(SCC(=O)N/N=C2\SCC(=O)N2c2ccc(C)cc2)nc2ccccc2c1=O
GI50: 20 µM (inactive)
//
compound: NC(=O)C(=O)N/N=C1/c2ccccc2CC1C1(O)C(=O)Nc2c(Cl)cc(Cl)cc21 (centres undefined)
GI50: > 100 µM (inactive)

Now for the compound whose GI50 we want.
[Q] Which value of GI50 has been reported for O=C(O)CCN1CCN(CCC(=O)O)CCN(CCC(=O)O)CC1 in the records?
[A] 32.6 µM (inactive)

---

# System: HT-29
# experimental protocol: NCI tumour cell line growth inhibition, 48 h
Activity calls are given as the source filed them. Cut-off read from the data, not from the text of the source: active = GI50 up to about 1.1 µM and inactive = higher.
metric name: GI50

compound: CC1=COC2=C(C)C(=O)C(=O)c3c(C)ccc1c32 [MANSONONE F]
target or test system: HT-29
GI50: 3.15 µM (inactive)

compound: NCP(=O)(O)OCC(=O)O
target or test system: HT-29
GI50: > 100 µM (inactive)

compound: CSCSCC(CO)NC(=O)/C=C\c1c(C)[nH]c(=O)[nH]c1=O (stereo unspecified)
target or test system: HT-29
GI50: 19.3 µM (inactive)

compound: CC(=N/NC(=S)N1CCCCCC1)/C(C)=N\NC(=S)N1CCCCCC1
target or test system: HT-29
GI50: 2.63 µM (inactive)

compound: O=C(CC1C(=O)Nc2ccccc2[S+]1[O-])Nc1cc(Cl)ccc1Cl (stereo unspecified)
target or test system: HT-29
GI50: > 100 µM (inactive)

[Q] Requested read-out GI50, target or system HT-29, entry Clc1cccc(-c2sc(-c3cccs3)cc2Cc2cccs2)c1
[A] > 10 µM (inactive)

[Q] Field entry: CC(CSC(=N)N)C(N)=O (stereo unspecified)
[A] > 100 µM (inactive)

[Q] Field entry: O=C(C1OC1c1ccc(O)cc1)C12CC3CC(CC(C3)C1)C2 (stereo unspecified)
[A] > 100 µM (inactive)

[Q] Field entry: CN(C)c1ccc(/C=C/c2nc3ccccc3s2)cc1
[A] > 100 µM (inactive)

[Q] Field entry: C/C(CC(=O)Nc1cccc(Cl)c1C)=N\N=C(N)N
[A] > 100 µM (inactive)

[Q] Field entry: O=C1Nc2ccccc2/C1=N/Nc1ccccc1[N+](=O)[O-]
[A] > 100 µM (inactive)

[Q] Field entry: O=C1c2ccccc2-c2ccc(N(Cc3ccc(Br)cc3)Cc3ccc(Br)cc3)cc21
[A] > 100 µM (inactive)

[Q] Field entry: Cc1cc2c(=O)n(-c3ccc(F)cc3)c(C)nc2c(C(=O)O)c1C
[A] > 100 µM (inactive)

[Q] Field entry: CC(=O)CCCCCCCCCCCC[C@@H]1CC[C@H](C)[C@H](O)N1
[A] 38.3 µM (inactive)

[Q] Field entry: Cn1c(S)nnc1-c1csc(-c2ccc(Cl)cc2)n1
[A] > 100 µM (inactive)

[Q] Field entry: CC1=NCCN=C(C)C1/N=N/c1ccc2[nH]c(C)nc2c1
[A] 12.6 µM (inactive)

---

# Test system: SK-MEL-28
# experimental protocol: NCI tumour cell line growth inhibition, 48 h
The source made the active and inactive calls. No stated cut-off is given here; in the data, active = GI50 up to about 1.1 µM and inactive = higher.
# output must be one of Yes (active), No (inactive)

[Q] How did this test come out for COc1ccc2c([nH]c3cc(O)c(C)cc32)c1C=O ?
[A] No

[Q] Field entry: COC(=O)C1c2cc3c(cc2C(OC2OC(C)C(OC)C(C)(OC)C2OC)CC1(C)O)C(=O)c1c(O)cc2c(c1C3=O)OC1OC2(C)C(O)C([N+](C)(C)[O-])C1O (stereo not drawn)
[A] Yes

[Q] Field entry: COc1nc2nccnc2c(=O)n1C
[A] No

[Q] Field entry: CC[C@@H]1/C=C/C=C/C[C@H](C)[C@@H](O)[C@](C)(O)C(=O)[C@H](C)[C@@H](O)[C@H](C)C(=O)[C@H](C)[C@@H](O)[C@H](C)/C=C/C(=O)O[C@H]2[C@@H](C)[C@@H](CC1)O[C@]1(O[C@H](CC(C)O)[C@H](C)CC1=O)[C@@H]2C (stereo partly drawn)
[A] No

[Q] Field entry: COc1cc(S(=O)(=O)Nc2ccc(-c3csc(/N=C\c4ccccc4O)n3)cc2)ccc1Cl
[A] No
